Assay: collision cross section of unmodified peptide (TIMS, N2, iRT-aligned); higher = larger / more extended gas-phase ion
Details: charge state: 2
READOUT: collision cross section (Å²)
Just the number please, in Å², no unit attached.

# example entries with known answers
• LLEEEDSKLK = 382.28
• IQTKAGEATVK = 361.35
• GARLPGPVSSAR = 359.36
• PANEKATDDYHYEK = 416.54
• FTEYETQVK = 363.82

Given the entry PGPKGEAGPTGPQGEPGVR , report its measured collision cross section.
431.75

Now the sequence VTGGIFSVTK
335.98

Now the sequence DHLSDKESK
345.48

###

Assay: collision cross section of modified peptide (TIMS, N2, iRT-aligned); higher = larger / more extended gas-phase ion
Conditions: charge state: 2; modification: Glutarylation
Returns one of y or n; y when collision cross section is >= 400 Å².

Answered examples (3):
- DDSFLGKLGGTLAR [_DDSFLGK(Gluratylation)LGGTLAR_]: y
- ISALQGKLSK [_ISALQGK(Gluratylation)LSK_]: n
- VTLEVGKVIQQGR [_VTLEVGK(Gluratylation)VIQQGR_]: y

Is collision cross section for GADFLVTEVENGGSLGSKK [_GADFLVTEVENGGSLGSK(Gluratylation)K_] at or above 400 Å²?
y

Now the sequence ITESVAETAQTIKK [_ITESVAETAQTIK(Gluratylation)K_]
y

Now the sequence LAEEENKAK [_LAEEENK(Gluratylation)AK_]
n

Now the sequence SDDESSQKDIK [_SDDESSQK(Gluratylation)DIK_]
n

Now the sequence LTSLNVKYNNDK [_LTSLNVK(Gluratylation)YNNDK_]
y

Now the sequence LLIVSTTPYSEKDTK [_LLIVSTTPYSEK(Gluratylation)DTK_]
y

Now the sequence KYEEIDNAPEER [_K(Gluratylation)YEEIDNAPEER_]
y

Now the sequence LDHLAEKFR [_LDHLAEK(Gluratylation)FR_]
n

Now the sequence LGVATVAKGVCGACK [_LGVATVAK(Gluratylation)GVCGACK_]
y

Now the sequence DSSPTTNSKLSALQR [_DSSPTTNSK(Gluratylation)LSALQR_]
y

###

Test: collision cross section of modified peptide (TIMS, N2, iRT-aligned); higher = larger / more extended gas-phase ion
Conditions: charge state: 2; modification: Crotonyl
Returns one of 1 (yes) or 0 (no); 1 (yes) when collision cross section is >= 400 Å².

Answered examples (2):
- ISALQGKLSK [_ISALQGK(Crotonyl)LSK_]: 0 (no)
- LLEEEDSKLK [_LLEEEDSK(Crotonyl)LK_]: 0 (no)

Is collision cross section for ANLEKAQAELVGTADEATR [_ANLEK(Crotonyl)AQAELVGTADEATR_] at or above 400 Å²?
1 (yes)

Now the sequence GTISAPGKVVTAAAQAK [_GTISAPGK(Crotonyl)VVTAAAQAK_]
1 (yes)

Now the sequence VYIASSSGSTAIKK [_VYIASSSGSTAIK(Crotonyl)K_]
1 (yes)

###

Assay: collision cross section of modified peptide (TIMS, N2, iRT-aligned); higher = larger / more extended gas-phase ion
Conditions: charge state: 3; modification: Methyl (K)
Known collision cross section of a selection of sequences
Just the number please, in Å², no unit attached.

- ANEKTESSSAQQVAVSR [_ANEK(Methyl (K))TESSSAQQVAVSR_]: 486.23
- VETTVTSLKTK [_VETTVTSLK(Methyl (K))TK_]: 455.24
- VGEFSGANKEK [_VGEFSGANK(Methyl (K))EK_]: 443.95
- LQEKVESAQSEQK [_LQEK(Methyl (K))VESAQSEQK_]: 480.74

Given the entry GEVQVSDKER [_GEVQVSDK(Methyl (K))ER_] , report its measured collision cross section.
436.39

Now the sequence PGGEGPQCEKTTDVK [_PGGEGPQCEK(Methyl (K))TTDVK_]
460.64

Now the sequence ITGKNQVTATK [_ITGK(Methyl (K))NQVTATK_]
447.83
